# System: MS2 coat protein
# method notes: apparent KD of MS2 coat protein; designed switch direction (-1 OFF switch, 1 ON switch): 1; higher = weaker reporter binding
# conditions used: Eterna round: R95; input ligand: microRNA oligo, concentration not stated
Label Met when apparent KD of MS2 coat protein is at or above 0.1 µM; anything below gets Not met.

sequence content	qualitative label
AGUCCAGCCUGAGCUGGACAAAAGCAUGUACAUGAGGAUCACCCAUGUCAUGUACAAGCUUUUUGCUCGUCUAAAAU [Mat - hsa-mir-208a - Mod of JL - D6] (puzzle: Sensor for hsa-mir-208a)	Not met
UCUUGGUUUUUGCUCGUUUUUUGUGUUGAACAUGAGGAUCACCCAUGUAUUGUACAAUCCAGUUUGAUAAUGGUCCG [JR_SHM208A_Sub045] (puzzle: Sensor for hsa-mir-208a)	Met
AUAAAACAUGAGGAUCACCCAUGUCAACAAAGUCGAGGAUAUGGGCAAAUAAAAUAAGAACCAGAAGGCUAAUAAU [salish99_ss1_r3_052] (puzzle: Same State 1)	Met
GGCUAUCGCGUACGAUAGCUUAAGCGUGUACAUGAGGAUCACCCAUGUCAUGUACAAGCUUUUUGCUCGUCUUAUUG [JL-shm-2.34 JL mod] (puzzle: Sensor for hsa-mir-208a)	Not met
AUAAGUCCGAUGCUCGUCUCUCCGUACAAACAUGAGGAUCACCCAUGUGAUCGGGAAGUAGCCCGAUCAGUAUGGCC [Erardius] (puzzle: Sensor for hsa-mir-208a)	Not met
